target: UniProt:P17931; test: competitive binding assay: biotinylated hGal-3 binding to microplate-adsorbed asialofetuin (ASF); details: Table 9; 2-OMe-Gal inhibitors; read-out: IC50 (Gal-3 inhibition)
Sequence (P17931 whole entry): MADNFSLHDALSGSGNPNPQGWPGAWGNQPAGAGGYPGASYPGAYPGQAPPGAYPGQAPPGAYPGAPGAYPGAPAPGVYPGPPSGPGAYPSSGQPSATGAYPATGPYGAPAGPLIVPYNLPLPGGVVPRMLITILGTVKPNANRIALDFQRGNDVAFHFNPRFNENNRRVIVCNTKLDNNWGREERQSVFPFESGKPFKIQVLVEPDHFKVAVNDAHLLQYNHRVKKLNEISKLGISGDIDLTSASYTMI
endpoint name: IC50 (nM)
Numbers only, in nM.

compound	endpoint name	reading
CO[C@@H]1[C@@H](n2cc(-c3cc(F)c(F)c(F)c3)nn2)[C@@H](O)[C@@H](CO)O[C@H]1S[C@H](c1ncccc1C)C1(O)CCOCC1 [Example 2.41.126R.I.]	IC50	60

Hi team, please reply with IC50 for each item in this list.
1. CO[C@@H]1[C@@H](n2cc(-c3cc(F)c(F)c(F)c3)nn2)[C@@H](O)[C@@H](CO)O[C@H]1S[C@H](c1ccccc1C(F)(F)F)[C@]1(O)CCOC(C)(C)C1 [Example 2.43.112RS.I]
2. CO[C@@H]1[C@@H](n2cc(-c3cc(F)c(F)c(F)c3)nn2)[C@@H](O)[C@@H](CO)O[C@H]1S[C@H](c1ncccc1C(F)(F)F)C1(O)CCC(F)(F)CC1 [Example 2.44.125R.I.]

OUTPUT:
1: 140; 2: 60
